Data origin, for the record: patent US7803821B2

# testMethodNotes: log P by HPLC on reversed-phase column (C18), EEC Directive 79/831 Annex V.A8
# Type: physicochemical
# measurementContext: C18, 40° C., 0.1% aqueous formic acid and acetonitrile, gradient 10% to 90% acetonitrile
experimentalEndpoint: logP

Cn1cc(C(=S)N(Cc2ccc(Cl)nc2)C2CC2)c(C(F)F)n1 = 2.58
Cn1cc(C(=O)N(Cc2ccc(Oc3ccccc3)nc2)C2CC2)c(C(F)F)n1 = 2.61
CC(c1cnccn1)N(C(=S)c1cn(C)nc1C(F)F)C1CC1 (centres unmarked) = 2.05
Cc1ccoc1C(=O)N(Cc1c(Cl)cncc1Cl)C1CC1 = 2.87
Cn1cc(C(=O)N(Cc2ccc(Cl)cn2)C2CC2)c(C(F)(F)F)n1 = 2.39
